# literature pull: UniProt P00533 IC50
# note: boundary value 10 µM maps to 0; IC50 below it maps to 1

Determine if "CN(C)C/C=C/C(=O)Nc1ccc2ncnc(Nc3cccc(Cl)c3F)c2c1OCC(F)(F)F" shows IC50 strictly lower than 10 µM. 1

Queued: "COc1ccc(F)c(COc2nsc(NC(=O)NCCCN3CC[C@@H](F)C3)c2C(N)=O)c1F" 0

Queued: "CC(C)NC(=O)c1cccc(COc2nsc(NC(=O)NCCCCN3CCCC3)c2C(N)=O)c1" 0

Queued: "CCOc1nn([C@@H](C)CO)c2c1/C=C/c1n[nH]c3cnc(cc13)-c1cnn(C)c1O[C@@H](C)CN(C)C2" 1

Queued: "COc1ccc(COc2nsc(NC(=O)NCCCCN3CCCC3)c2C(N)=O)cn1" 0

Queued: "[2H]C([2H])([2H])Oc1c(NC(=O)/C=C/[C@H]2CCCN2CC)ccc2ncnc(Nc3ccc(OCc4ccccn4)c(Cl)c3)c12" 1

Queued: "COc1cc(OC)c(F)c(COc2nsc(NC(=O)NCCC3CCN(C)CC3)c2C(N)=O)c1F" 0

Queued: "CCN1CCN(CCCNC(=O)Nc2snc(OCc3ccc(F)c(C(=O)NC4CC4)c3)c2C(N)=O)CC1" 0

Queued: "NC(=O)c1c(OCc2cccc(C(=O)NC3CC3)c2)nsc1NC(=O)NCCCN1CCCC1" 0

Queued: "COc1ccc(/C=C2/S/C(=N\c3ccc(C(=O)O)cc3)N(C(=O)c3ccccc3)C2=O)cc1" 1

Queued: "CN1CCC[C@@H]1/C=C/C(=O)Nc1ccc2ncnc(Nc3ccc(OCc4ccccn4)c(Cl)c3)c2c1OC1CCC1" 1

Queued: "COCCOc1c(NC(=O)/C=C/CN(C)C)ccc2ncnc(Nc3ccc(Cl)c(Cl)c3F)c12" 1

###

pIC50: −log10 of the molar value.
# literature pull: UniProtKB P00533 pIC50
Please enter satisfied where pIC50 is greater than or equal to 5, and not satisfied where it is lower.

Could you tell me if the measured pIC50 of "CCOc1c(NC(=O)/C=C/[C@H]2CCCN2CC)ccc2ncnc(Nc3ccc(OCc4ccccn4)c(Cl)c3)c12" reaches 5 or more? satisfied

Queued: "CCOc1nn(CCO)c2c1/C=C/c1n[nH]c3cnc(cc13)-c1cnn(C)c1O[C@@H](C)CN(C(C)C)C2" satisfied

Queued: "COc1c(NC(=O)/C=C/[C@H]2CCCN2C)ccc2ncnc(Nc3ccc(OCc4ccccn4)c(Cl)c3)c12" satisfied

Queued: "CN1CCC(CCNC(=O)Nc2snc(OCc3cc4c(cc3F)CCO4)c2C(N)=O)CC1" satisfied

Queued: "COc1ccc(F)c(COc2nsc(NC(=O)NCCCCN3CCOCC3)c2C(N)=O)c1F" not satisfied

Queued: "CCOc1nn(CCO)c2c1/C=C/c1n[nH]c3cnc(cc13)-c1cnn(C)c1O[C@H](C)CN(C(C)C)C2" satisfied

Queued: CN1CCC[C@@H]1/C=C/C(=O)Nc1ccc2ncnc(Nc3ccc(OCc4ccccn4)c(Cl)c3)c2c1OC1CCOC1 (some centres unmarked) satisfied

Queued: "COc1ccc(F)c(COc2nsc(NC(=O)NCCCN3CC[C@H](F)C3)c2C(N)=O)c1F" not satisfied

Queued: "CC(C)Oc1nn(CCO)c2c1/C=C/c1n[nH]c3cnc(cc13)-c1cnn(C)c1O[C@@H](C)CN(C)C2" satisfied

Queued: "NC(=O)c1c(OCc2cc3c(cc2F)CCO3)nsc1NC(=O)NCCCN1CC[C@H](F)C1" not satisfied

Queued: "NC(=O)c1c(OCc2cccc(C(=O)NC3CC3)c2)nsc1NC(=O)NCCN1CCCC1" not satisfied

Queued: COc1cc(OC)c(F)c(COc2nsc(NC(=O)NCCCC3CCCN3C)c2C(N)=O)c1F (centres unmarked) not satisfied

Queued: "CCN1CCC[C@@H]1/C=C/C(=O)Nc1ccc2ncnc(Nc3ccc(OCc4cccc(F)c4)c(Cl)c3)c2c1OC" satisfied

Queued: C[S+]([O-])c1c(F)c(F)c(F)c(F)c1Nc1cc2c(Nc3ccc(F)c(Cl)c3)ncnc2cc1O[C@H]1CCOC1 (some centres unmarked) satisfied

Queued: "NC(=O)c1c(OCc2ccc(F)c(C(=O)NC3CC3)c2)nsc1NC(=O)NCCCN1CCN(C2CC2)CC1" not satisfied

Queued: "CN1CCC[C@@H]1/C=C/C(=O)Nc1ccc2ncnc(Nc3ccc(Cl)c(Cl)c3F)c2c1OCCO" satisfied

Queued: "CCN1CCC(CCNC(=O)Nc2snc(OCc3ccc4c(c3)OCC4)c2C(N)=O)CC1" not satisfied

Queued: "COc1c(NC(=O)/C=C/CN(C)C2CCC2)ccc2ncnc(Nc3ccc(OCc4ccccn4)c(Cl)c3)c12" satisfied

Queued: "[2H]C([2H])([2H])Oc1c(NC(=O)/C=C/[C@H]2CCCN2C)ccc2ncnc(Nc3ccc(OCc4ccccn4)c(Cl)c3)c12" satisfied

Queued: "CS(=O)(=O)c1c(F)c(F)c(F)c(F)c1C(=O)NCCCn1nc(-c2ccc(Oc3ccccc3)cc2)c2c(N)ncnc21" satisfied

Queued: "COc1cccc(COc2nsc(NC(=O)NCCCCN3CCCC3)c2C(N)=O)c1F" not satisfied

Queued: "NC(=O)c1c(OCc2ccc(F)c(C(=O)NC3CC3)c2)nsc1NC(=O)NCCCN1CC[C@H](F)C1" not satisfied

Queued: "CS(=O)(=O)c1c(F)c(F)c(F)c(F)c1C(=O)Nc1cc2c(Nc3ccc(F)c(Cl)c3)ncnc2cc1O[C@H]1CCOC1" satisfied

Queued: C[S@+]([O-])c1c(F)c(F)c(F)c(F)c1C(=O)N1CC(n2nc(-c3ccc(Oc4ccccc4)cc3)c3c(N)ncnc32)C1 (racemic) satisfied

Queued: "COc1cc(OC)c(F)c(COc2nsc(NC(=O)NCCCCN3CC[C@@H](O)C3)c2C(N)=O)c1F" not satisfied
